test_target: T1, eTau 2
T1 construct: member of the group m9
T1 polypeptide: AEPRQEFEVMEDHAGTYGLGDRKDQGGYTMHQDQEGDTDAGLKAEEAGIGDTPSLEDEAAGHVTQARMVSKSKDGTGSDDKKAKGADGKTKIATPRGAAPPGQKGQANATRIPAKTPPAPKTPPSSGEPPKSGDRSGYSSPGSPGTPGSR
measurement_notes: relative binding affinity, method not named (Table 4)
quantity_kind: Kd
The reply should read as a number followed by its unit.

input: # Kd lookup, item VH3/Vk3 (antibody, V domains shown, member of the group m7; also called humanized IPN002 variant VH3/Vk3) VH: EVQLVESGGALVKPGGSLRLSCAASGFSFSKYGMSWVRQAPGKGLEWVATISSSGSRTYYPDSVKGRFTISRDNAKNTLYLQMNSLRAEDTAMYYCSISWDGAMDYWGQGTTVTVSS VL: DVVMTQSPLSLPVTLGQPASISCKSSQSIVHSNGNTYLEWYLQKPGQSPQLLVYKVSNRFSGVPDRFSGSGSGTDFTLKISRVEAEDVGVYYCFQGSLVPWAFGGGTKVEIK
output: 0.471 nM

input: Which measured Kd value corresponds to VH3/Vk2 (antibody, V domains shown, member of the group m7; also called humanized IPN002 variant VH3/Vk2) VH: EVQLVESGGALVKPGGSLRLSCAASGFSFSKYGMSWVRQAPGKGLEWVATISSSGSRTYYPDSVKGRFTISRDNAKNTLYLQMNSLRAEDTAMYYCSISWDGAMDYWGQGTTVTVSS VL: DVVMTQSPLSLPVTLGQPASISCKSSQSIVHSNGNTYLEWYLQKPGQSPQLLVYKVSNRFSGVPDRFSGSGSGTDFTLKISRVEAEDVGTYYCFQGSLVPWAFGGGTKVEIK ?
output: 0.408 nM
